ASSAY_OVERVIEW: chemical genetic growth profiling, strain panel (AID 1159580);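 further: tested at 20 µM; growth read once vehicle control cultures reached saturation at 30 °C; 1 = growth at the plate median or of vehicle wells; lower values mean less growth of the strain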
CONDITIONS: S. cerevisiae deletion strains, growth OD, locus YMR125W, strain sto1, active compounds read low
In all, about 5,500 compounds went through this assay and about 2,000 (36%) were called active. Another 18% or so got no clear call; they are omitted. The list shows a part of the results.
MEASUREMENT_KIND: normalized growth

molecule=CCC[C@H](N[C@@H](C)C(=O)N1[C@H](C(=O)O)C[C@@H]2CCCC[C@@H]21)C(=O)OCC measurement_kind="normalized growth" value_observed=0.994
molecule="CN1C2CCC1CC(OC(c1ccccc1)c1ccccc1N)C2 (stereo not drawn)" measurement_kind="normalized growth" value_observed=0.992
molecule="C[C@]12CCC(=O)C=C1C=CC1C2CC[C@@]2(C)C1CC[C@@]21CCC(=O)O1 (stereo partly drawn)" measurement_kind="normalized growth" value_observed=0.985
molecule=CC[C@@]1(O)C[C@H](O)c2c(cc3c(c2O)C(=O)c2c(O)ccc(O)c2C3=O)[C@H]1C(=O)OC measurement_kind="normalized growth" value_observed=1.08
molecule=CN1C2C[C@H](OC(=O)[C@H](CO)c3ccccc3)C[C@H]1[C@@H](O)C2 measurement_kind="normalized growth" value_observed=0.983
molecule="CC[C@]1(O)CC2CN(CCc3c([nH]c4ccccc34)[C@@](C(=O)OC)(c3cc4c(cc3OC)N(C)[C@H]3[C@@](O)(C(=O)OC)[C@H](OC(C)=O)[C@]5(CC)C=CCN6CC[C@]43[C@@H]65)C2)C1 (stereo partly drawn)" measurement_kind="normalized growth" value_observed=1.02
molecule=COc1ccc(C(=O)CC(=O)O)c2c1C=CC(C)(C)O2 measurement_kind="normalized growth" value_observed=0.994
molecule="C/C=C(\\C)C(=O)O[C@H]1C[C@@H](OC(C)=O)[C@@]2(C(=O)OC)CO[C@@H]3C2[C@]12CO[C@](O)(C(=O)OC)[C@H]2[C@](C)(C12O[C@@]1(C)[C@H]1C[C@@H]2OC2OC=C[C@@]21O)[C@@H]3O (stereo partly drawn)" measurement_kind="normalized growth" value_observed=0.958

###

ASSAY_OVERVIEW: chemical genetic growth profiling, strain panel (AID 1159580)
CONDITIONS: S. cerevisiae deletion strains, growth OD, locus YER155C, strain BEM2, active compounds read low
Screen size: about 5,500 compounds; about 2,000 (36%) were called active. Another 18% or so got no clear call; they are omitted. This is one part of the list.
MEASUREMENT_KIND: normalized growth

compound=COc1ccc([C@H]2Oc3c(I)c(OC)cc(OC)c3C[C@@H]2O)cc1OC value_observed=0.996
compound=O=C1c2ccc(O)cc2O[C@H](c2cc(O)c(O)c(O)c2)[C@H]1O value_observed=1.04
compound=Oc1cc(O)c2c(c1)O[C@H](c1cc(O)c(O)c(O)c1)[C@H](O)C2 value_observed=1.01
compound="CCN1CCCC(OC(=O)C(c2ccccc2)c2ccccc2)C1 (stereo not given)" value_observed=1.01
compound="COc1ccc2c(c1)OC1(O)COc3cc(OC)c(OC)cc3C1=C2 (stereo not given)" value_observed=1

###

ASSAY_OVERVIEW: chemical genetic growth profiling, strain panel (AID 1159580)
CONDITIONS: S. cerevisiae deletion strains, growth OD, locus YJL164C, strain tpk1
The whole screen tested about 5,500 compounds, of which about 2,000 (36%) were called active. Not shown: some 18% with an inconclusive outcome. Rule as the data show it: active = normalized growth mostly below about 0.91 (no sharp cut-off); inconclusive = no clear call, values can overlap the other calls; inactive = mostly above about 0.92. This is one part of the list.
Outcomes: TRUE = active, FALSE = inactive

compound="CNCCC(Oc1ccc(C(F)(F)F)cc1)c1ccccc1 (configuration not stated)" label=FALSE
compound=Cc1ncc(CNC(=O)N(CCCl)N=O)c(N)n1 label=FALSE
compound=c1ccc2c(c1)sc1ccccc12 label=TRUE
compound=O=C1NCC2(CCN(CCc3ccccc3)CC2)O1 label=FALSE
compound="CN1C2CCC1CC(OC(c1ccccc1)c1ccccc1N)C2 (configuration not stated)" label=FALSE
compound=Oc1ccc2c(c1)O[C@H](c1ccc(O)c(O)c1)[C@@H](O)C2 label=FALSE
compound=CC[C@@]1(O)C[C@H](O[C@H]2C[C@H](N(C)C)[C@H](O)[C@H](C)O2)c2c(cc3c(c2O)C(=O)c2c(O)ccc(O)c2C3=O)[C@H]1C(=O)OC label=TRUE
compound=CN1C2C[C@H](OC(=O)[C@H](CO)c3ccccc3)C[C@H]1[C@@H](O)C2 label=FALSE
compound="CC(=O)S[C@@H]1CC2=CC(=O)CC[C@]2(C)[C@H]2CC[C@@]3(C)[C@@H](CC[C@@]34CCC(=O)O4)C12 (some centres not stated)" label=FALSE
compound="CN(C)CCOC(c1ccc(Cl)cc1)c1ccccn1 (configuration not stated)" label=FALSE
compound=O=C(NC(=O)c1ccccc1Cl)Nc1ccc(OC(F)(F)F)cc1 label=FALSE
compound=CC[C@@]1(O)C[C@H](O[C@H]2C[C@H](N(C)C)[C@H](O)[C@H](C)O2)c2c(cc3c(c2O)C(=O)c2c(O)cccc2C3=O)[C@H]1C(=O)OC label=TRUE

###

ASSAY_OVERVIEW: chemical genetic growth profiling, strain panel (AID 1159580);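 further: tested at 20 µM; growth read once vehicle control cultures reached saturation at 30 °C; 1 = growth at the plate median or of vehicle wells; lower values mean less growth of the strain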
CONDITIONS: S. cerevisiae deletion strains, growth OD, locus YPL078C, strain atp4, active compounds read low
Hit rate of the full screen: of about 5,500 compounds, about 2,000 (36%) were called active. Inconclusive results (about 18%) are left out. This is one part of the list.
For each record, check the reported normalized growth: if it is below 1 write 1, else write 0.

smiles_entry=O=c1c(-c2ccc(O)cc2)coc2cc(O)ccc12 label=1
smiles_entry=COc1ccc(-c2coc3cc(O)ccc3c2=O)c(OC)c1 label=0

###

The entries below are paired with their reported normalized growth.
ASSAY_OVERVIEW: chemical genetic growth profiling, strain panel (AID 1159580);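 further: tested at 20 µM; growth read once vehicle control cultures reached saturation at 30 °C; 1 = growth at the plate median or of vehicle wells; lower values mean less growth of the strain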
CONDITIONS: S. cerevisiae deletion strains, growth OD, locus YLR221C, strain rsa3, active compounds read low
Among all 5,500 compounds or so, about 2,000 (36%) were called active. Inconclusive results (about 18%) are left out. The list shows a part of the results.
MEASUREMENT_KIND: normalized growth

compound="CC(=O)O[C@H]1C[C@@H](OC(C)=O)C(C)(C)C2CC(=O)[C@]3(C)C(CC[C@@]4(C)[C@H](C(=O)O)OC(=O)C5OC543)[C@]21C (stereo partly specified)" value_observed=1.01
compound="C=C1CCC2[C@](C)(CO)[C@H](O)CC[C@@]2(C)[C@@H]1C/C=C1/C(=O)OC[C@H]1O (stereo partly specified)" value_observed=1.04
compound=CCCCCCCCCCC[C@@H](C[C@H]1OC(=O)[C@H]1CCCCCC)OC(=O)[C@@H](CC(C)C)NC=O value_observed=1.03
compound="CC[C@@H](C(=O)C(C)[C@@H](O)[C@H](C)CCc1ccc(C)c(O)c1C(=O)O)C1OC(CC)(C2CC[C@](O)(CC)[C@H](C)O2)C[C@@H]1C (stereo partly specified)" value_observed=1.06
compound=O=C1NCC2(CCN(CCc3ccccc3)CC2)O1 value_observed=1
compound=COc1ccc2c(c1)OC/C(=C\c1ccc(OC)c(O)c1)C2=O value_observed=0.841
compound=COc1ccc(-c2coc3cc(O)ccc3c2=O)c(OC)c1O value_observed=0.966
compound="Cc1ccccc1C(OCCN(C)C)c1ccccc1 (stereo unspecified)" value_observed=1.01
compound=CCCCCCCCCCCCCc1ccco1 value_observed=0.889
compound=CCOC(=O)n1ccn(C)c1=S value_observed=0.967
compound=O=c1c(-c2ccc(O)cc2)coc2cc(O)ccc12 value_observed=0.953
compound="CN(C)CCOC(c1ccc(Cl)cc1)c1ccccn1 (stereo unspecified)" value_observed=1.01
compound=C=CCCCCCCCCCCCc1ccco1 value_observed=0.66
compound="C/C=C(\\C)C(=O)O[C@H]1C[C@@H](OC(C)=O)[C@@]2(C(=O)OC)CO[C@@H]3C2[C@]12CO[C@](O)(C(=O)OC)[C@H]2[C@](C)(C12O[C@@]1(C)[C@H]1C[C@@H]2OC2OC=C[C@@]21O)[C@@H]3O (stereo partly specified)" value_observed=0.999
compound=C#CCCCCCCCCCCCc1ccco1 value_observed=0.975
compound=O=C(c1ccc(OCCN2CCCCC2)cc1)c1c(-c2ccc(O)cc2)sc2cc(O)ccc12 value_observed=1
compound=CN1CCC(OC(c2ccccc2)c2ccccc2)CC1 value_observed=1.04
compound=CCN(CC)C(=O)N1CCN(C)CC1 value_observed=0.963
compound="c1ccc2c(c1)CCCC2C1=NCCN1 (stereo unspecified)" value_observed=1.04
compound=COc1ccc2c(c1)OC/C(=C/c1ccc(OC)c(OC)c1)C2=O value_observed=0.886
compound=COc1ccc(-c2coc3cc(O)ccc3c2=O)c(OC)c1 value_observed=1

###

ASSAY_OVERVIEW: chemical genetic growth profiling, strain panel (AID 1159580);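 further: tested at 20 µM; growth read once vehicle control cultures reached saturation at 30 °C; 1 = growth at the plate median or of vehicle wells; lower values mean less growth of the strain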
CONDITIONS: S. cerevisiae deletion strains, growth OD, locus YDL040C, strain nat1, active compounds read low
In all, about 5,500 compounds went through this assay and about 2,000 (36%) were called active. Roughly 18% stayed inconclusive and do not appear here. The list shows a part of the results.
Listed below: normalized growth values for each entry.
MEASUREMENT_KIND: normalized growth

molecule="COC(=O)[C@@H]1OC(=O)C2OC23[C@@]1(C)CCC1[C@]2(C)C(C[C@H](O)[C@]13C)C(C)(C)[C@H](OC(C)=O)C[C@@H]2OC(C)=O (some centres undefined)" measurement_kind="normalized growth" value_observed=1.01
molecule=COC(=O)c1cc(=O)c(O)c2c(O)c(O)ccc2c1 measurement_kind="normalized growth" value_observed=0.986
molecule=O=S(=O)(O)c1cc(N=C=S)ccc1/C=C/c1ccc(N=C=S)cc1S(=O)(=O)O measurement_kind="normalized growth" value_observed=1.02
molecule="COc1cc([C@@H]2c3cc4c(cc3C(OC3O[C@@H]5COC(C)O[C@H]5[C@H](O)[C@H]3O)C3COC(=O)[C@@H]32)OCO4)cc(OC)c1O (some centres undefined)" measurement_kind="normalized growth" value_observed=1.03
